biological target: vanilloid receptor (Rattus norvegicus); construct: DRG nerve cells from the primary culture of 2 days were equilibrated by washing 4 times; endogenous in cells; assay: 45Ca influx test (calcium uptake) in primary cultured neonatal rat DRG neurons, capsaicin-stimulated; settings: capsaicin 0.5 µM, 45Ca 10 µCi/ml, 10 mins at room temperature, read-out: Antagonist Calcium Uptake Test (IC50)
Sequence (O35433 whole entry): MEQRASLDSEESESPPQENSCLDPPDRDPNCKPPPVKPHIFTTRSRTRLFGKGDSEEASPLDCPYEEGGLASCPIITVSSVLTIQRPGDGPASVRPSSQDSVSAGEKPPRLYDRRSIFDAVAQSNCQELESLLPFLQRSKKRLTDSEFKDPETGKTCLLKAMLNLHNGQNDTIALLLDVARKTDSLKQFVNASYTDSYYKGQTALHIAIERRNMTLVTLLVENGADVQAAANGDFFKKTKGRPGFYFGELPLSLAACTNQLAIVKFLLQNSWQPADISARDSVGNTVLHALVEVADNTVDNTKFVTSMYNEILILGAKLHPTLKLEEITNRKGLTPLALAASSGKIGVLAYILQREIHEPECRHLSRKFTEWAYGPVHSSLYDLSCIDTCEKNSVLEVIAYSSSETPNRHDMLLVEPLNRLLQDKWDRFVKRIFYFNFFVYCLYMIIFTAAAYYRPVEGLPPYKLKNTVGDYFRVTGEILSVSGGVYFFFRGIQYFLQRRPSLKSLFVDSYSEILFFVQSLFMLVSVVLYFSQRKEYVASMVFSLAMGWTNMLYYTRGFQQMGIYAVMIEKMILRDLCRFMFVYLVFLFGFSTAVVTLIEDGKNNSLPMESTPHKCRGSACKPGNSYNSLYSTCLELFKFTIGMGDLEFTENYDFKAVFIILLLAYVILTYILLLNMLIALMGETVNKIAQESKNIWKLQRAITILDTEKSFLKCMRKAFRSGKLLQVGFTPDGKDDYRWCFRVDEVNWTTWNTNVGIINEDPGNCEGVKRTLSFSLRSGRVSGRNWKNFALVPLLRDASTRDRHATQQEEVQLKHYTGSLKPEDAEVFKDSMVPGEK
Each record is given Fulfilled if its reported IC50 is strictly below 700 nM. Records at or above 700 nM are given Not fulfilled.

{"columns": ["substance-smiles", "group"],
 "data": [
  ["C[C@@H](NC(=O)COc1ccc(C(C)(C)C)cc1)c1ccc(NS(C)(=O)=O)c(F)c1", "Fulfilled"],
  ["CCC(C)(C)c1ccc(OCC(=O)NCc2ccc(NS(C)(=O)=O)c(F)c2)cc1", "Fulfilled"],
  ["CS(=O)(=O)Nc1ccc(CNC(=O)COc2ccc(C(F)(F)F)cc2N2CCOCC2)cc1F", "Not fulfilled"],
  ["Cc1cc(NS(C)(=O)=O)c(F)cc1CNC(=O)COc1ccc(C(C)(C)C)cc1", "Fulfilled"],
  ["CC(C)(C)C(=O)OCc1cc(C(F)(F)F)ccc1OCC(=O)NCc1ccc(NS(C)(=O)=O)c(F)c1", "Not fulfilled"],
  ["CC(C)(C)c1ccc(OCC(=NC#N)NCc2ccc(NS(C)(=O)=O)c(F)c2)cc1", "Fulfilled"],
  ["CC(C)(C)c1ccc(OCC(=O)NCc2ccc(NS(C)(=O)=O)cc2)cc1", "Fulfilled"],
  ["CC(C)(C)c1ccc(OCC(=O)NCc2ccc(NS(C)(=O)=O)c(Cl)c2)cc1", "Fulfilled"],
  ["C[C@H](Oc1ccc(C(C)(C)C)cc1)C(=O)NCc1ccc(NS(C)(=O)=O)c(F)c1", "Not fulfilled"],
  ["CS(=O)(=O)Nc1ccc(CNC(=O)COc2ccc3c(c2)OCO3)cc1F", "Not fulfilled"],
  ["CS(=O)(=O)Nc1ccc(CNC(=O)COc2ccc(F)c(F)c2)cc1F", "Not fulfilled"],
  ["CS(=O)(=O)Nc1ccc(CNC(=O)COc2ccc(OC(F)(F)F)cc2)cc1F", "Not fulfilled"],
  ["C#Cc1cc(CNC(=O)CSc2ccc(C(C)(C)C)cc2)cc(F)c1NS(C)(=O)=O", "Fulfilled"],
  ["CS(=O)(=O)Nc1ccc(CNC(=O)COc2ccccc2C(F)(F)F)cc1F", "Not fulfilled"],
  ["CS(=O)(=O)Nc1ccc(CNC(=O)COc2ccc(I)cc2)cc1F", "Not fulfilled"],
  ["C=Cc1cc(CNC(=O)COc2ccc(C(C)(C)C)cc2)ccc1NS(C)(=O)=O", "Fulfilled"],
  ["CS(=O)(=O)Nc1ccc(CNC(=O)COCc2ccc(C(F)(F)F)cc2)cc1F", "Not fulfilled"],
  ["CS(=O)(=O)Nc1ccc(CNC(=O)COc2ccc(Br)cc2)cc1F", "Not fulfilled"],
  ["CS(=O)(=O)Nc1ccc(CNC(=O)COc2ccc(C3CCCCC3)cc2)cc1F", "Not fulfilled"],
  ["CS(=O)(=O)Nc1ccc(CNC(=O)COc2cccc(Cl)c2)cc1F", "Not fulfilled"],
  ["CS(=O)(=O)Nc1ccc(CNC(=O)COc2c(I)cc(C(F)(F)F)cc2I)cc1F", "Not fulfilled"],
  ["C#Cc1cc(CNC(=O)COc2ccc(C(C)(C)C)cc2)cc(F)c1NS(C)(=O)=O", "Fulfilled"],
  ["CS(=O)(=O)Nc1ccc(CNC(=O)COc2ccc(C(F)(F)F)cc2I)cc1F", "Not fulfilled"],
  ["Cc1cc(CNC(=O)COc2ccc(C(C)(C)C)cc2)cc(F)c1NS(C)(=O)=O", "Fulfilled"],
  ["CS(=O)(=O)Nc1ccc(CNC(=O)COc2ccc(F)cc2F)cc1F", "Not fulfilled"],
  ["C=Cc1cc(CNC(=O)COc2ccc3c(c2)OCO3)cc(F)c1NS(C)(=O)=O", "Not fulfilled"],
  ["CS(=O)(=O)Nc1ccc(CNC(=O)COc2cc(Cl)cc(Cl)c2)cc1F", "Not fulfilled"],
  ["CC(C)(C)c1ccc(OCC(=O)NCc2ccc(NS(C)(=O)=O)c(F)c2)cc1", "Fulfilled"],
  ["CC(C)(C)c1cccc(OCC(=O)NCc2ccc(NS(C)(=O)=O)c(F)c2)c1", "Not fulfilled"],
  ["CS(=O)(=O)Nc1ccc(CNC(=O)COc2cccc(Br)c2)cc1F", "Not fulfilled"],
  ["Cc1cc(OCC(=O)NCc2ccc(NS(C)(=O)=O)c(F)c2)ccc1[N+](=O)[O-]", "Not fulfilled"],
  ["CCc1cc(CNC(=O)COc2ccc(C(C)(C)C)cc2)cc(F)c1NS(C)(=O)=O", "Fulfilled"],
  ["CC(C)(C)c1ccc(SCC(=O)NCc2ccc(NS(C)(=O)=O)c(F)c2)cc1", "Not fulfilled"]
]}

* * *

Target: vanilloid receptor (Rattus norvegicus)
Construct: DRG nerve cells from the primary culture of 2 days were equilibrated by washing 4 times; endogenous in cells; host or cells: primary culture of dorsal root ganglion (DRG) neurons from neonatal SD rats
Assay: 45Ca influx test (calcium uptake) in primary cultured neonatal rat DRG neurons, capsaicin-stimulated
Type: cell-based, SD rats
Conditions: capsaicin 0.5 µM, 45Ca 10 µCi/ml, 10 mins at room temperature, read-out: Antagonist Calcium Uptake Test (IC50)
Method: 1) Separation of spinal dorsal root ganglia (DRG) in newborn rats and primary culture thereof Neonatal (2-3 day old or younger than 2-3 day old) SD rats were put in ice for 5 minutes to anesthetize and disinfected with 70% ethanol. DRG of all part of spinal cord were dissected (Wood et al., 1988, J. Neurosci. 8, pp3208-3220) and collected in DME/F12 medium to which 1.2g/l sodium bicarbonate, 50mg/l gentamycin were added. […]
recorded-metric: IC50

{"columns": ["substance-smiles", "target-or-test-system", "recorded-metric", "readout-value"],
 "data": [
  ["CS(=O)(=O)Nc1ccc(CNC(=O)COc2ccc(Cl)cc2Cl)cc1F", "vanilloid receptor (Rattus norvegicus)", "IC50", "> 10 µM"],
  ["COc1cc(C)ccc1OCC(=O)NCc1ccc(NS(C)(=O)=O)c(F)c1", "vanilloid receptor (Rattus norvegicus)", "IC50", "> 10 µM"],
  ["C=Cc1cc(CNC(=O)COc2ccc(C(C)(C)C)cc2)cc(F)c1NS(C)(=O)=O", "vanilloid receptor (Rattus norvegicus)", "IC50", "0.034 µM"],
  ["C[C@@H](N/C(COc1ccc(C(C)(C)C)cc1)=N/C#N)c1ccc(NS(C)(=O)=O)cc1", "vanilloid receptor (Rattus norvegicus)", "IC50", "0.21 µM"],
  ["CS(=O)(=O)Nc1ccc(CNC(=O)COc2ccc(Cl)c(F)c2)cc1F", "vanilloid receptor (Rattus norvegicus)", "IC50", "> 10 µM"],
  ["CS(=O)(=O)Nc1ccc(CNC(=O)COc2ccc(-c3ccccc3)cc2)cc1F", "vanilloid receptor (Rattus norvegicus)", "IC50", "> 10 µM"],
  ["CCCOc1ccc(OCC(=O)NCc2ccc(NS(C)(=O)=O)c(F)c2)cc1", "vanilloid receptor (Rattus norvegicus)", "IC50", "> 10 µM"],
  ["CS(=O)(=O)Nc1ccc(CNC(=O)COCc2ccc(C(F)(F)F)cc2C(F)(F)F)cc1F", "vanilloid receptor (Rattus norvegicus)", "IC50", "5.1 µM"]
]}

* * *

molecular target: vanilloid receptor (Rattus norvegicus); construct: DRG nerve cells from the primary culture of 2 days were equilibrated by washing 4 times; endogenous in cells; host or cells: primary culture of dorsal root ganglion (DRG) neurons from neonatal SD rats; assay: 45Ca influx test (calcium uptake) in primary cultured neonatal rat DRG neurons, capsaicin-stimulated; assay type: cell-based, SD rats; settings: capsaicin 0.5 µM, 45Ca 10 µCi/ml, 10 mins at room temperature, read-out: Antagonist Calcium Uptake Test (IC50)
Assign classes using reported IC50 values and the ranges lower segment = under 100 nM, middle segment = from 100 nM up to 1000 nM, upper segment = 1000 nM and over, please.

{"columns": ["molecule", "group"],
 "data": [
  ["CC(C)(C)c1ccc(OCC(=O)NCc2cc(F)c(NS(C)(=O)=O)c(C#N)c2)cc1", "middle segment"],
  ["Cc1cc(CNC(=O)COc2ccc(C(C)(C)C)cc2)cc(Cl)c1NS(C)(=O)=O", "middle segment"],
  ["C[C@@H](Oc1ccc(C(C)(C)C)cc1)C(=O)NCc1ccc(NS(C)(=O)=O)c(F)c1", "middle segment"],
  ["COc1cc(Cl)ccc1OCC(=O)NCc1ccc(NS(C)(=O)=O)c(F)c1", "upper segment"],
  ["CC(C)(C)c1ccc(OCC(=O)NCc2ccc(NS(C)(=O)=O)c(F)c2)c(C(C)(C)C)c1", "upper segment"],
  ["CC(C)(Oc1ccc(C(F)(F)F)cc1)C(=O)NCc1ccc(NS(C)(=O)=O)c(F)c1", "upper segment"],
  ["CS(=O)(=O)Nc1ccc(CNC(=O)COc2cccc(-c3ccccc3Cl)c2)cc1F", "upper segment"],
  ["CS(=O)(=O)Nc1ccc(CNC(=O)COc2ccc(-c3ccccc3Cl)cc2)cc1F", "upper segment"],
  ["C[C@@H](NC(=O)COc1ccc(C(C)(C)C)cc1)c1ccc(NS(C)(=O)=O)cc1", "lower segment"],
  ["CCC(C)c1ccc(OCC(=O)NCc2ccc(NS(C)(=O)=O)c(F)c2)cc1 (stereo not shown)", "lower segment"],
  ["CS(=O)(=O)Nc1ccc(CNC(=O)COc2ccc(C(F)(F)F)cc2)cc1F", "upper segment"],
  ["CC(=O)c1cc(C(F)(F)F)ccc1OCC(=O)NCc1ccc(NS(C)(=O)=O)c(F)c1", "upper segment"],
  ["CC(C)c1ccc(OCC(=O)NCc2ccc(NS(C)(=O)=O)c(F)c2)cc1", "lower segment"]
]}

Measured values drawn from patent EP1857440A1 for this set.
